Listed here are molecules together with their documented kobs.
assay.system: UniProt Q9EQZ6
test.details: Epac activation assay, full length Epac2
Format: biochemical
Set-up: made in house
condition.details: 3 μM compound
endpoint.name: kobs (s⁻¹)

INSERT INTO results (molecule, assay_system, recorded_number) VALUES
  ('Nc1ncnc2c1nc(SCc1ccccc1)n2[C@@H]1O[C@@H]2CO[P@](O)(=S)O[C@H]2[C@H]1O [S-220, Sp-8-BnT-cAMPS]', 'UniProt Q9EQZ6', 0.000975),
  ('Nc1ncnc2c1ncn2[C@@H]1O[C@@H]2COP(=O)(O)O[C@H]2[C@H]1O [cAMP, reference compound]', 'UniProt Q9EQZ6', '4.1e-05'),
  ('COC1C2OP(=O)(O)OCC2OC1n1c(Sc2ccc(Cl)cc2)nc2c(N)ncnc21 [D-007, 8-pCPT-2′-O-Me-cAMP, reference compound]', 'UniProt Q9EQZ6', '2.37e-05'),
  ('Cc1ccc(CSc2nc3c(N)ncnc3n2[C@@H]2O[C@@H]3CO[P@](O)(=S)O[C@H]3[C@H]2O)cc1 [S-230, Sp-8-pMeBnT-cAMPS]', 'UniProt Q9EQZ6', 0.000128);

---

assay.system: Epac1 (Homo sapiens)
Construct: made in house
Sequence (O95398 192-923): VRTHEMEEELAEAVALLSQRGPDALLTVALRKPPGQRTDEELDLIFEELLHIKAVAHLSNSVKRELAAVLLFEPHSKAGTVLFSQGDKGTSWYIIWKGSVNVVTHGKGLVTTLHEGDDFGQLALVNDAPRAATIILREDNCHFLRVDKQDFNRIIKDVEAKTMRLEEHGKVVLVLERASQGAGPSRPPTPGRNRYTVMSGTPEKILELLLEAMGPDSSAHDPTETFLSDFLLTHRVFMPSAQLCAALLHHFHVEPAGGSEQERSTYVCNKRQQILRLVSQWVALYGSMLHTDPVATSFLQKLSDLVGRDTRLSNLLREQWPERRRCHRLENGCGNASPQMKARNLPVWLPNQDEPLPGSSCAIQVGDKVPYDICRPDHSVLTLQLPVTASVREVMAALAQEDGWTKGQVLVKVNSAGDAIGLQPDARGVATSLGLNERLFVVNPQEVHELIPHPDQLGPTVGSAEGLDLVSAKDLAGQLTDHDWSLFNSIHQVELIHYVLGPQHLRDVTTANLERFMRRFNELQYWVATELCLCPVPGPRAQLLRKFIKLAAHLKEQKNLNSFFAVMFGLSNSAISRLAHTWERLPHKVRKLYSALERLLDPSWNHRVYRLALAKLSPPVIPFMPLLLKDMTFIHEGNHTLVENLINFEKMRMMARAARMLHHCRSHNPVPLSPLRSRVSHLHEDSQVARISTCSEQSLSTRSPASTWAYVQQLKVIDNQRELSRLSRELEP
test.details: Epac activation assay, Epac1
Assay type: biochemical
condition.details: 30 μM compound
Listed here are molecules together with their documented kobs.
endpoint.name: kobs (s⁻¹)

INSERT INTO assay_data (molecule, assay_system, recorded_number) VALUES
  ('Nc1ncnc2c1nc(SCc1ccccc1)n2[C@@H]1O[C@@H]2CO[P@](O)(=S)O[C@H]2[C@H]1O', 'Epac1 (Homo sapiens)', 0.000312),
  ('Nc1ncnc2c1ncn2[C@@H]1O[C@@H]2COP(=O)(O)O[C@H]2[C@H]1O [cAMP, reference compound]', 'Epac1 (Homo sapiens)', 0.000589),
  ('COC1C2OP(=O)(O)OCC2OC1n1c(Sc2ccc(Cl)cc2)nc2c(N)ncnc21 [D-007, 8-pCPT-2′-O-Me-cAMP, reference compound]', 'Epac1 (Homo sapiens)', 0.00364),
  ('Cc1ccc(CSc2nc3c(N)ncnc3n2[C@@H]2O[C@@H]3CO[P@](O)(=S)O[C@H]3[C@H]2O)cc1', 'Epac1 (Homo sapiens)', 0.000115);

---

assay.system: PKA-IIα (Homo sapiens)
Construct: made in house
Sequence (P13861 whole entry): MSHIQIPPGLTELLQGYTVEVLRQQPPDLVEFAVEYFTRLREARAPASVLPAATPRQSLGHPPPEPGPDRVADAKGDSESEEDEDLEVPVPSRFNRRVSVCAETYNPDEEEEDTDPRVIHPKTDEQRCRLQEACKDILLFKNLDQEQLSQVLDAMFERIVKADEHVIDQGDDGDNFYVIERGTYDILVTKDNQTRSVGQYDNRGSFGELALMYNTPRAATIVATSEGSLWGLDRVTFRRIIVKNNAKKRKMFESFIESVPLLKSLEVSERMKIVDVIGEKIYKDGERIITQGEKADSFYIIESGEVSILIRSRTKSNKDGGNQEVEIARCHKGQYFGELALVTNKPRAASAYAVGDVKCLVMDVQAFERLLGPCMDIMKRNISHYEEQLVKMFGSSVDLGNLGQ
test.details: PKA activity assay, PKA-IIα
Assay type: biochemical
condition.details: PKAIIα; concentration 1.00E+01 μM
endpoint.name: A (PKA activity)

INSERT INTO measurements (compound, result) VALUES
  ('Nc1ncnc2c1ncn2[C@@H]1O[C@@H]2COP(=O)(O)O[C@H]2[C@H]1O [cAMP, reference compound]', '2.43E+01 U/mg'),
  ('Cc1ccc(CSc2nc3c(N)ncnc3n2[C@@H]2O[C@@H]3CO[P@](O)(=S)O[C@H]3[C@H]2O)cc1', '1.22E+01 U/mg'),
  ('COC1C2OP(=O)(O)OCC2OC1n1c(Sc2ccc(Cl)cc2)nc2c(N)ncnc21 [D-007, 8-pCPT-2′-O-Me-cAMP, reference compound]', '1.14E+01 U/mg'),
  ('Nc1ncnc2c1nc(SCc1ccccc1)n2[C@@H]1O[C@@H]2CO[P@](O)(=S)O[C@H]2[C@H]1O', '2.30E+01 U/mg');

---

Listed here are molecules together with their documented kobs.
assay.system: Epac2^fl (Mus musculus, UniProt Q9EQZ6)
Sequence (Q9EQZ6 1-993 isoform Q9EQZ6-3): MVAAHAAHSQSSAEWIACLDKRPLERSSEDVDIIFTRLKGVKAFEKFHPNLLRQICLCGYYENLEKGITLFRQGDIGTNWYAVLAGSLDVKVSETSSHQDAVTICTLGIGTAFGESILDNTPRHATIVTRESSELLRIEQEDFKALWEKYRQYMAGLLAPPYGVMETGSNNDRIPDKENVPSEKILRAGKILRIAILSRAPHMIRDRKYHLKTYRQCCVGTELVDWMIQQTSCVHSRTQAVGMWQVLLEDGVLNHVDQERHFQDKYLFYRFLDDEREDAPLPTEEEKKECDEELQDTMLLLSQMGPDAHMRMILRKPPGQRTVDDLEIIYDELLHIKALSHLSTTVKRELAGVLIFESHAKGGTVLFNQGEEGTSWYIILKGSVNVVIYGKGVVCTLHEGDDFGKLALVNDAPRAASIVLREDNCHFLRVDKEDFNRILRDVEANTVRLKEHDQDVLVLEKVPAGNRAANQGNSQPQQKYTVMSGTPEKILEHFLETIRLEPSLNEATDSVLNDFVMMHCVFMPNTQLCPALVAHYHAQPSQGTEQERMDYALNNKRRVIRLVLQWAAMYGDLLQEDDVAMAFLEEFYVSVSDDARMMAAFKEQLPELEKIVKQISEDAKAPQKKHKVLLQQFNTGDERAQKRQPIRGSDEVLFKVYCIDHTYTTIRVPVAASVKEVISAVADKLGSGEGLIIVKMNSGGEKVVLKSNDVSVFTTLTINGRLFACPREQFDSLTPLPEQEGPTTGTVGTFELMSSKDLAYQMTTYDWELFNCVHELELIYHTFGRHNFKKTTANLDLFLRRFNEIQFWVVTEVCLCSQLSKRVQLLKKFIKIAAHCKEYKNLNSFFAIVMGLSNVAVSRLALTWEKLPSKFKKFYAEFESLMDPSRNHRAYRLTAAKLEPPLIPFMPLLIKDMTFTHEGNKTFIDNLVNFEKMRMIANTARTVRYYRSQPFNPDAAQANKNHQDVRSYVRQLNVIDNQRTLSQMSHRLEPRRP
test.details: Epac activation assay, full length Epac2
Assay type: biochemical
Parameters: made in house
condition.details: 0.8 μM compound
endpoint.name: kobs (s⁻¹)

INSERT INTO assay_data (molecule, recorded_number) VALUES
  ('Nc1ncnc2c1ncn2[C@@H]1O[C@@H]2COP(=O)(O)O[C@H]2[C@H]1O [cAMP, reference compound]', '2.47e-05'),
  ('Nc1ncnc2c1nc(SCc1ccccc1)n2[C@@H]1O[C@@H]2CO[P@](O)(=S)O[C@H]2[C@H]1O [S-220, Sp-8-BnT-cAMPS]', 0.000428),
  ('COC1C2OP(=O)(O)OCC2OC1n1c(Sc2ccc(Cl)cc2)nc2c(N)ncnc21 [D-007, 8-pCPT-2′-O-Me-cAMP, reference compound]', '1.75e-05'),
  ('Cc1ccc(CSc2nc3c(N)ncnc3n2[C@@H]2O[C@@H]3CO[P@](O)(=S)O[C@H]3[C@H]2O)cc1 [S-230, Sp-8-pMeBnT-cAMPS]', '4.1e-05');

---

Listed here are compounds together with their documented kobs.
assay.system: Epac2^fl (Mus musculus, UniProt Q9EQZ6)
test.details: Epac activation assay, full length Epac2
Format: biochemical
Set-up: made in house
condition.details: 80 μM compound
endpoint.name: kobs

INSERT INTO assay_data (compound, result) VALUES
  ('COC1C2OP(=O)(O)OCC2OC1n1c(Sc2ccc(Cl)cc2)nc2c(N)ncnc21 [D-007, 8-pCPT-2′-O-Me-cAMP, reference compound]', '9.01e-05 s⁻¹'),
  ('Nc1ncnc2c1ncn2[C@@H]1O[C@@H]2COP(=O)(O)O[C@H]2[C@H]1O [cAMP, reference compound]', '0.000203 s⁻¹'),
  ('Cc1ccc(CSc2nc3c(N)ncnc3n2[C@@H]2O[C@@H]3CO[P@](O)(=S)O[C@H]3[C@H]2O)cc1 [S-230, Sp-8-pMeBnT-cAMPS]', '0.000558 s⁻¹'),
  ('Nc1ncnc2c1nc(SCc1ccccc1)n2[C@@H]1O[C@@H]2CO[P@](O)(=S)O[C@H]2[C@H]1O [S-220, Sp-8-BnT-cAMPS]', '0.00152 s⁻¹');

---

assay.system: PKA-Iα (Homo sapiens, UniProt P10644)
Construct: made in house
Sequence (P10644 whole entry): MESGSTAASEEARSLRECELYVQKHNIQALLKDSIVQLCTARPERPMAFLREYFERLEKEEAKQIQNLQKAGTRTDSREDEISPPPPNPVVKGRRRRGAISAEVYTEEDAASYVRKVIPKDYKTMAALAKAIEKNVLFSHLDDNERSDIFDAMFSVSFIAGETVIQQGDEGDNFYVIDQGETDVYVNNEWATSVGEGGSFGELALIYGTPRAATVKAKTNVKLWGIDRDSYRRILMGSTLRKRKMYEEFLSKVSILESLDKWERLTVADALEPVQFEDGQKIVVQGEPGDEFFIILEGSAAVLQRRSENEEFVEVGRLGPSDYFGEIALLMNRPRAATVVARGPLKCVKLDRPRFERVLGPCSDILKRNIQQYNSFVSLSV
test.details: PKA activity assay (coupled spectrophotometric, Kemptide), PKA-Iα
Format: biochemical
condition.details: PKAIα; concentration 1.00E+01 μM
endpoint.name: A (PKA activity)

INSERT INTO results (compound, result) VALUES
  ('Cc1ccc(CSc2nc3c(N)ncnc3n2[C@@H]2O[C@@H]3CO[P@](O)(=S)O[C@H]3[C@H]2O)cc1 [S-230, Sp-8-pMeBnT-cAMPS]', '1.9936 U/mg'),
  ('Nc1ncnc2c1ncn2[C@@H]1O[C@@H]2COP(=O)(O)O[C@H]2[C@H]1O [cAMP, reference compound]', '2.34E+01 U/mg'),
  ('Nc1ncnc2c1nc(SCc1ccccc1)n2[C@@H]1O[C@@H]2CO[P@](O)(=S)O[C@H]2[C@H]1O [S-220, Sp-8-BnT-cAMPS]', '2.59E+01 U/mg'),
  ('COC1C2OP(=O)(O)OCC2OC1n1c(Sc2ccc(Cl)cc2)nc2c(N)ncnc21 [D-007, 8-pCPT-2′-O-Me-cAMP, reference compound]', '1.06E+01 U/mg');
